- SYSTEM: pendrin (ssPendrin, SLC26A4) (Sus scrofa, UniProt A0A480E679, Q101L/T224A)
- PROTOCOL: inhibition of […]-HCO3- uptake in proteoliposomes of purified mutant
EXPERIMENTAL READOUT: pIC50
Answers are plain numbers, as −log10 of the molar value.

Quick note, pIC50 for O=C(O)c1cccnc1Nc1cccc(C(F)(F)F)c1 landed at 4.79

----------
- SYSTEM: pendrin (ssPendrin, SLC26A4) (Sus scrofa, UniProt A0A480E679, T224V)
- PROTOCOL: inhibition of […]-HCO3- uptake in proteoliposomes of purified mutant
EXPERIMENTAL READOUT: pIC50
Answers are plain numbers, as −log10 of the molar value.

# pIC50 of O=C(O)c1cccnc1Nc1cccc(C(F)(F)F)c1 [NFA, niflumic acid] = 5.02

----------
- SYSTEM: pendrin (ssPendrin, SLC26A4) (Sus scrofa, UniProt A0A480E679)
- Construct: C-terminal TEV site and 8x His-tag
- Sequence (A0A480E679 1-780): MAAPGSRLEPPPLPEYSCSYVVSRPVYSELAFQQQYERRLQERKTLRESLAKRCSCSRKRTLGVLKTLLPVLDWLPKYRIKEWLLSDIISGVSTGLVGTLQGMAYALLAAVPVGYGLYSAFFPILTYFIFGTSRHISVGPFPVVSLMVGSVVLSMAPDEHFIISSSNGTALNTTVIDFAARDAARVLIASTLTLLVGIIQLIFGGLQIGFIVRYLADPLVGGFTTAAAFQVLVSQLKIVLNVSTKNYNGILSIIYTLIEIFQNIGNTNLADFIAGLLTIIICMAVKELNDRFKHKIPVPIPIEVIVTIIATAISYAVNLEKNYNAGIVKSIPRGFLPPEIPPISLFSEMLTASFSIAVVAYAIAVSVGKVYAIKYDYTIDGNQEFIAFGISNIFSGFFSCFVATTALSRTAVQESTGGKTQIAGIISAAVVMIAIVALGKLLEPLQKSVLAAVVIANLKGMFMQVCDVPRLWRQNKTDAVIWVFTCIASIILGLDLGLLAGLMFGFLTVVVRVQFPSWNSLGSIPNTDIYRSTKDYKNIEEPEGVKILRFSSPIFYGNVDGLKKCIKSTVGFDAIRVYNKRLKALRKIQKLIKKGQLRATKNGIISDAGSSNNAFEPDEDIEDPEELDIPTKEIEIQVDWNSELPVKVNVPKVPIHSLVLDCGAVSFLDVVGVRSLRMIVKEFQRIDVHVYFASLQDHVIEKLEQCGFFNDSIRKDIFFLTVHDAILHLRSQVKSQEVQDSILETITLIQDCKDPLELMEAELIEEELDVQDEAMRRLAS
- PROTOCOL: cryo-EM structure at […] Å; inhibition of […]-HCO3- uptake in proteoliposomes of purified protein
EXPERIMENTAL READOUT: IC50 (µM)
One number for each entry, in µM.

response.value for O=C(O)c1cccnc1Nc1cccc(C(F)(F)F)c1 (field: IC50) = 15.5
